biological target: Avi-KRAS G12D (1-169) GppNHp/RAF1 RBD-3xFLAG (52-151) (Homo sapiens, UniProt P01116, G12D); construct: Avi-KRAS G12D (1-169); assay: Raf1-KRAS G12D-GppNHP disruption HTRF assay (Biological Example 1); assay type: binding; conditions: KRAS G12D, GppNHp-loaded; Table 11
Sequence (P01116 1-169 isoform P01116-2 G12D): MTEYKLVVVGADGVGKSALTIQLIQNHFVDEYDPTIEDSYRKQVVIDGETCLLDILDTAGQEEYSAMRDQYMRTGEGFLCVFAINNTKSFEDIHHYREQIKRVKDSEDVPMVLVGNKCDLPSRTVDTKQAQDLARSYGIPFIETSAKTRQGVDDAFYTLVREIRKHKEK
Can you tell me IC50 for the items I'm about to list?

Q. What does the record list as IC50 for CN(c1nc(OC[C@@]23CCCN2C[C@H](F)C3)nc2c(F)c(-c3ccc(F)c4sc(N)c(C#N)c34)c(C(F)(F)F)cc12)[C@H]1C[C@@H](F)C1 (atropisomer, axis not shown) ?
A. 100 to 1000 nM

Q. Follow-up entry: CCN(c1nc(OCC23CCCN2CCC3)nc2c(F)c(-c3ccc(F)c4sc(N)nc34)c(C(F)(F)F)cc12)[C@H]1C[C@@H](O)C1 (atropisomer, axis not shown)
A. 1000 to 10000 nM

Q. Follow-up entry: Nc1nc2c(-c3c(C(F)(F)F)cc4c(N[C@H]5CC[C@@H](O)CC5)nc(OCC56CCCN5CCC6)nc4c3F)ccc(F)c2s1
A. 1000 to 10000 nM

Q. Follow-up entry: CN(c1nc(OC[C@@]23CCCN2C[C@H](F)C3)nc2c(F)c(-c3ccc(F)c4sc(N)c(C#N)c34)c(C(F)(F)F)cc12)[C@H]1C[C@@H](O)C1 (single isomer, unassigned) [Compound 20]
A. 1000 to 10000 nM

Q. Follow-up entry: CC(=O)N(C)CCN(C)c1nc(OC[C@@]23CCCN2C[C@H](F)C3)nc2c(F)c(-c3ccc(F)c4sc(N)c(C#N)c34)c(C(F)(F)F)cc12
A. 100 to 1000 nM

Q. Follow-up entry: CN(c1nc(OCC23CCCN2CCC3)nc2c(F)c(-c3ccc(F)c4sc(N)nc34)c(C(F)(F)F)cc12)[C@H]1C[C@H](O)C1 (atropisomer, axis not shown)
A. 1000 to 10000 nM

Q. Follow-up entry: CN(c1nc(OC[C@@]23CCCN2C[C@H](F)C3)nc2c(F)c(-c3ccc(F)c4sc(N)c(C#N)c34)c(C(F)(F)F)cc12)[C@H]1CCN(S(C)(=O)=O)C1
A. 1000 to 10000 nM

Q. Follow-up entry: CN(c1nc(OC[C@@]23CCCN2C[C@H](F)C3)nc2c(F)c(-c3ccc(F)c4sc(N)c(C#N)c34)c(C(F)(F)F)cc12)[C@@H]1CCN(C(=O)CC#N)C1 (atropisomer, axis not shown) [Compound 103]
A. 100 to 1000 nM

Q. Follow-up entry: N#Cc1c(N)sc2c(F)ccc(-c3c(C(F)(F)F)cc4c(N5C[C@@H]6C[C@H]5CO6)nc(OC[C@@]56CCCN5C[C@H](F)C6)nc4c3F)c12
A. 100 to 1000 nM

Q. Follow-up entry: C[C@@H]1C[C@H](O)CCN1c1nc(OC[C@@]23CCCN2C[C@H](F)C3)nc2c(F)c(-c3ccc(F)c4sc(N)c(C#N)c34)c(C(F)(F)F)cc12
A. 100 to 1000 nM

Q. Follow-up entry: CN(c1nc(OC[C@@]23CCCN2C[C@H](F)C3)nc2c(F)c(-c3ccc(F)c4scc(C#N)c34)c(C(F)(F)F)cc12)[C@@H]1CCN(C(=O)CC#N)C1
A. > 10000 nM

Q. Follow-up entry: C[C@@H](CO)N(C)c1nc(OC[C@@]23CCCN2C[C@H](F)C3)nc2c(F)c(-c3ccc(F)c4sc(N)c(C#N)c34)c(C(F)(F)F)cc12
A. < 100 nM

Q. Follow-up entry: Nc1nc2c(-c3c(C(F)(F)F)cc4c(N5CCC(O)C5)nc(OCC56CCCN5CCC6)nc4c3F)ccc(F)c2s1 (centres unmarked)
A. 1000 to 10000 nM

Q. Follow-up entry: CN(c1nc(OC[C@@]23CCCN2C[C@H](F)C3)nc2c(F)c(-c3ccc(F)c4sc(N)c(C#N)c34)c(C(F)(F)F)cc12)[C@@H]1CCC[C@H]1CO
A. > 10000 nM

Q. Follow-up entry: CC(=O)N1CC[C@H](N(C)c2nc(OC[C@@H]3CC4(CC4)CN3C)nc3c(F)c(-c4ccc(F)c5sc(N)c(C#N)c45)c(C(F)(F)F)cc23)[C@@H]1C
A. 1000 to 10000 nM

Q. Follow-up entry: CN(c1nc(OC[C@@]23CCCN2C[C@H](F)C3)nc2c(C#N)c(-c3ccc(F)c4sc(N)c(C#N)c34)c(Cl)cc12)[C@H]1C[C@@H](O)C1
A. 100 to 1000 nM

Q. Follow-up entry: CCC(=O)N1CC[C@@H](N(C)c2nc(OC[C@@]34CCCN3C[C@H](F)C4)nc3c(F)c(-c4ccc(F)c5sc(N)c(C#N)c45)c(C(F)(F)F)cc23)[C@H]1C [Compound 260]
A. < 100 nM

Q. Follow-up entry: CN(c1nc(OC[C@@]23CCCN2C[C@H](F)C3)nc2c(F)c(-c3ccc(F)c4sc(N)c(C#N)c34)c(C(F)(F)F)cc12)[C@@H]1C[C@H](O)[C@H]1CC#N
A. 100 to 1000 nM

Q. Follow-up entry: N#Cc1c(N)sc2c(F)ccc(-c3c(C(F)(F)F)cc4c(N5CCNS(=O)(=O)CC5)nc(OC[C@@]56CCCN5C[C@H](F)C6)nc4c3F)c12
A. < 100 nM

Q. Follow-up entry: CCC(=O)N1CC[C@@H](N(C)c2nc(OC[C@@]34CCCN3C[C@H](F)C4)nc3c(F)c(-c4ccc(F)c5sc(N)c(C#N)c45)c(C(F)(F)F)cc23)C1
A. 100 to 1000 nM
